Some compounds, each annotated with its measured pIC50.
Target: central benzodiazepine receptors (specific benzodiazepine receptors in the cerebral cortex)
Test: Inhibition of the specific binding of tritiated diazepam at the specific benzodiazepine receptors in the cerebral cortex (affinity to central benzodiazepine receptors)
Conditions: read-out: Affinity to benzodiazepine receptors IC 50
From the text: The affinity of compounds of formula I to the central benzodiazepine receptors has been determined according to the method described in Life Science 20, 2101-2110 (1977) and Science 198, 849-851 (1977). According to this method, the inhibition of the binding of tritiated diazepam at the specific benzodiazepine receptors in the cerebral cortex by the respective test substances is ascertained. […]
pIC50: −log10 of the molar value.

| compound | pIC50 |
| --- | --- |
| CC(=O)OCC#Cc1ncn2c1CN(C)C(=O)c1c(Cl)cccc1-2 [B] | 8.59 |
| CN1Cc2c(C#CCOCC3CC3)ncn2-c2cccc(Cl)c2C1=O [A] | 8.85 |
| C/C(C#Cc1ncn2c1CN(C)C(=O)c1c(Cl)cccc1-2)=C\CO [F] | 8.66 |
| CN1Cc2c(C#CC(C)(C)OCC3CC3)ncn2-c2cccc(Cl)c2C1=O [C] | 8.30 |
